assay: AUC (0 to infinity) in Balb/c mouse blood at 30 mg/kg, po administered as single dose measured upto 24 hrs by LC-MS analysis; format: ADME, organism-based; set-up: route oral, dose 30 mg/kg, time <=24

SMILES REPR	AUC(0-inf) (ng·h/mL)
COc1cc(/C=C/C(=O)N[C@H](Cc2ccc(O)cc2)C(=O)O)ccc1O	3450

###

assay: Cmax in Balb/c mouse blood at 30 mg/kg, po administered as single dose measured upto 24 hrs by LC-MS analysis; assay type: ADME, organism-based; parameters: route oral, dose 30 mg/kg, time <=24

SMILES REPR	Cmax, ng/mL
COc1cc(/C=C/C(=O)N[C@H](Cc2ccc(O)cc2)C(=O)O)ccc1O	1000

###

assay: Half life in Balb/c mouse blood at 30 mg/kg, po administered as single dose measured upto 24 hrs by LC-MS analysis; type: ADME, organism-based
READOUT TYPE: half-life (h)

SMILES REPR	READOUT TYPE	READOUT NUMBER
COc1cc(/C=C/C(=O)N[C@H](Cc2ccc(O)cc2)C(=O)O)ccc1O	half-life	1.2

###

assay: Cmax in Balb/c mouse brain at 30 mg/kg, po administered as single dose measured upto 24 hrs by LC-MS analysis; format: ADME, organism-based; parameters: route oral, dose 30 mg/kg, time <=24
READOUT TYPE: Cmax (ng/mL)

SMILES REPR	READOUT TYPE	UNITS LABEL	READOUT NUMBER
COc1cc(/C=C/C(=O)N[C@H](Cc2ccc(O)cc2)C(=O)O)ccc1O	Cmax	ng/mL	40.2

###

assay: Effective permeability of compound in PBS buffer at pH 7.4 at 200 uM incubated for 17 hrs by PAMPA-BBB assay; type: ADME; conditions: read-out: Peff
Listed next: entries and their corresponding Papp at 17 h, 200 µM.
READOUT TYPE: Papp at 17 h, 200 µM (×10⁻⁶ cm/s)

COMPOUND	UNITS LABEL	READOUT NUMBER
COc1cc(/C=C/C(=O)N[C@H](Cc2ccc(O)cc2)C(=O)O)ccc1O	×10⁻⁶ cm/s	1.23
CC(=N)NCc1cccc(CN)c1 [1400W]	×10⁻⁶ cm/s	3.18

###

molecular target: Nitric oxide synthase, inducible (Homo sapiens)
Sequence (P35228 whole entry): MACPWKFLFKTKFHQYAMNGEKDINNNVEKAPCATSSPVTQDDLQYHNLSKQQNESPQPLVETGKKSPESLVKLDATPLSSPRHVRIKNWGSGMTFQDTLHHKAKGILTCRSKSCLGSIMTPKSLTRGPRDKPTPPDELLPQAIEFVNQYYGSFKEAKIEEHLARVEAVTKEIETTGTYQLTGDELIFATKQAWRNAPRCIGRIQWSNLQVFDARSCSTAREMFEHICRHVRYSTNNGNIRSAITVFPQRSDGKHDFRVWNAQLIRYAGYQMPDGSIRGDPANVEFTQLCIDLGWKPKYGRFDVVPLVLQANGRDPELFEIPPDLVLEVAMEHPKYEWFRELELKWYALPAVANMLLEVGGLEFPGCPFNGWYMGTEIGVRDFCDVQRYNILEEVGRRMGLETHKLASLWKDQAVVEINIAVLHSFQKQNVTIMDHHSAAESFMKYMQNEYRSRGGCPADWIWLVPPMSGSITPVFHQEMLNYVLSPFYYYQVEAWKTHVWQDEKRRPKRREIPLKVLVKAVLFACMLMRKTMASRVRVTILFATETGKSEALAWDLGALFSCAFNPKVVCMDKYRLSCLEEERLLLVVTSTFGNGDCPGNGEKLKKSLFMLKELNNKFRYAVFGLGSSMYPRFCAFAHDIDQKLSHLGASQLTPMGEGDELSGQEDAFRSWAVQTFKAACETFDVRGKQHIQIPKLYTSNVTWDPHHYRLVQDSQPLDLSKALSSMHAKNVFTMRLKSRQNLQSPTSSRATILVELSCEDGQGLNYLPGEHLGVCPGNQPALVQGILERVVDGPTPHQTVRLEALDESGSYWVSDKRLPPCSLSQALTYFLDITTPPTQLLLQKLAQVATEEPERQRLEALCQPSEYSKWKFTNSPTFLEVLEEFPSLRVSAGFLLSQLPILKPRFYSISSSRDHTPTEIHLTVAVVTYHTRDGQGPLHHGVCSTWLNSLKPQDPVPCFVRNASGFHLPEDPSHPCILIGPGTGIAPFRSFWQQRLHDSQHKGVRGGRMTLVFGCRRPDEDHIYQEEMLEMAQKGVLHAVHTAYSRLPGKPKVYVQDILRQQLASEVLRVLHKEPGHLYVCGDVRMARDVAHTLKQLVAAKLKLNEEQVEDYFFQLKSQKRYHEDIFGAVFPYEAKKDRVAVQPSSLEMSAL
pIC50: −log10 of the molar value.

SMILES REPR	pIC50
COc1cc(/C=C/C(=O)N[C@H](Cc2ccc(O)cc2)C(=O)O)ccc1O	6.05

###

target: Nitric oxide sythases; iNOS & nNOS (Homo sapiens) (UniProt P29475+P35228); assay: Selectivity ratio of IC50 for human nNOS to IC50 for human iNOS; type: protein assay
Sequence (P29475 whole entry, looked up): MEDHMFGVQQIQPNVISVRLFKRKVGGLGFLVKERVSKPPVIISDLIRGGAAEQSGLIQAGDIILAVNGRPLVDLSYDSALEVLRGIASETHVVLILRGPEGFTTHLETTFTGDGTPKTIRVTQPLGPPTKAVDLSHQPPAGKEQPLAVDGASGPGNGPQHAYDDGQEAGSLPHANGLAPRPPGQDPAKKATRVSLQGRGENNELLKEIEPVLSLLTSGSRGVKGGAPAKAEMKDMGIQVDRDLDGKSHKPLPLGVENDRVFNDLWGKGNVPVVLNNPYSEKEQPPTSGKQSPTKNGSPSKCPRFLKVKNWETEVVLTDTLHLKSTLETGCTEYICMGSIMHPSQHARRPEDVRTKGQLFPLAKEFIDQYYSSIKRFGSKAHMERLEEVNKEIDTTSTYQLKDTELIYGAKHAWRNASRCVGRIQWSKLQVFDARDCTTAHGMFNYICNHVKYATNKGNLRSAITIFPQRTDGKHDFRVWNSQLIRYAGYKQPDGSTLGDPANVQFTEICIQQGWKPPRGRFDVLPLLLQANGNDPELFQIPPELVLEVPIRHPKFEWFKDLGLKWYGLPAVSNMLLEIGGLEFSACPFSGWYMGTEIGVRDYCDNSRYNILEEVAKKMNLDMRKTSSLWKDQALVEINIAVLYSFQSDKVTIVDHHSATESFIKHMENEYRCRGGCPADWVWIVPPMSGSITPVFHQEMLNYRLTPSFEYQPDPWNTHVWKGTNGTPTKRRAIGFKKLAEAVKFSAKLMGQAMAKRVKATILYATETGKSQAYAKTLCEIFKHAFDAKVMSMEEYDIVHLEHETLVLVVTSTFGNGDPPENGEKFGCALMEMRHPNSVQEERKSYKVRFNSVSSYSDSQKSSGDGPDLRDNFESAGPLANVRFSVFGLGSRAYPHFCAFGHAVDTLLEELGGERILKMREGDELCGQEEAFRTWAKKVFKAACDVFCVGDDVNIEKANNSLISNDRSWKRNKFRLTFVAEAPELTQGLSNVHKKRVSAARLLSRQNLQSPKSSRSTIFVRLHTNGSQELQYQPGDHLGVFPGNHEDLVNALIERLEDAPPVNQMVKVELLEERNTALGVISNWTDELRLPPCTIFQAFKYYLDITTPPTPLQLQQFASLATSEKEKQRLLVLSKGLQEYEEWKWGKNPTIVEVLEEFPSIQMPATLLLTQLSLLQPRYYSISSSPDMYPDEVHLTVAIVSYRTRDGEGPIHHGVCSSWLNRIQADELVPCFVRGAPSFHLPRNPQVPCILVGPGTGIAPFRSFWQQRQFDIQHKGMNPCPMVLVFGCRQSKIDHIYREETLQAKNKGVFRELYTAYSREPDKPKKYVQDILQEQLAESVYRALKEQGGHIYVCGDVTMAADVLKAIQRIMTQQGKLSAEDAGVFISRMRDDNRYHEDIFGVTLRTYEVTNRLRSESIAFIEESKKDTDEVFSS
Sequence (P35228 whole entry, looked up): as the sequence (P35228 whole entry) above
READOUT TYPE: Ratio IC50

SMILES REPR	READOUT TYPE	READOUT NUMBER
COc1cc(/C=C/C(=O)N[C@H](Cc2ccc(O)cc2)C(=O)O)ccc1O	Ratio IC50	45
CC(C)C[C@H](NC(=O)/C=C/c1ccc(Cl)c(Cl)c1)C(=O)O	Ratio IC50	39
O=C(/C=C/c1ccccc1Cl)N[C@@H](Cc1ccc(F)cc1)C(=O)O	Ratio IC50	153
O=C(/C=C/c1ccc(Cl)c(Cl)c1)N[C@@H](Cc1ccc(F)cc1)C(=O)O	Ratio IC50	149

###

species: Homo sapiens; experiment: Selectivity ratio of IC50 for human eNOS to IC50 for human iNOS

SMILES REPR	Ratio IC50
COc1cc(/C=C/C(=O)N[C@H](Cc2ccc(O)cc2)C(=O)O)ccc1O	52
O=C(/C=C/c1ccccc1Cl)N[C@@H](Cc1ccc(F)cc1)C(=O)O	180
CC(C)C[C@H](NC(=O)/C=C/c1ccc(Cl)c(Cl)c1)C(=O)O	39
O=C(/C=C/c1ccc(Cl)c(Cl)c1)N[C@@H](Cc1ccc(F)cc1)C(=O)O	165

Entry source: ChEMBL document CHEMBL5046219
